Items are presented alongside their recorded Proportion of Take Off, Female Proportion.
- Test system: Coccinella septempunctata
- testProtocol: Wind tunnel experiment: behavioral responses of ladybugs to the attractant
- Type: in vivo
- conditionInfo: female ladybugs; number of take-off insects/total number of insects; 30 min, 28° C., wind speed 0.3 m/s
measure: Proportion of Take Off, Female Proportion

| compound | targetUnderTest | experimentalResult |
| --- | --- | --- |
| C=CC1(C)CCC(C(=C)C)CC1C(=C)C (stereo not shown) | Coccinella septempunctata | 0% |
| CCC/C=C/C(=O)O [Comparative Example 18, trans-2-hexenoic acid] | Coccinella septempunctata | 11.7% |
| CC(C)CC=O | Coccinella septempunctata | 13.3% |
| CC(C)=CCC/C(C)=C/CC/C(C)=C/CC/C=C(\C)CC/C=C(\C)CCC=C(C)C | Coccinella septempunctata | 20% |

====

Items are presented alongside their recorded Proportion of Knocking Filter Paper, Female Proportion.
- Test system: Coccinella septempunctata
- testProtocol: Wind tunnel experiment: behavioral responses of ladybugs to the attractant
- Assay type: in vivo
- conditionInfo: female ladybugs; number of insects knocking filter paper/total number of insects; 30 min, 28° C., wind speed 0.3 m/s
measure: Proportion of Knocking Filter Paper, Female Proportion

| molecule | experimentalResult |
| --- | --- |
| CC(C)=CCC/C(C)=C/CC/C(C)=C/CC/C=C(\C)CC/C=C(\C)CCC=C(C)C [Comparative Example 20, squalene] | 13.3% |
| CCC/C=C/C(=O)O [Comparative Example 18, trans-2-hexenoic acid] | 10% |
| C=CC1(C)CCC(C(=C)C)CC1C(=C)C (stereo not shown) [Comparative Example 16] | 0% |
| CC(C)CC=O [Comparative Example 19, isovaleraldehyde] | 11.7% |
